Data credit: PubChem BioAssay (NCI)

- Experimental protocol: NCI Yeast Anticancer Drug Screen. Data for the rad50 strain (AID 155);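 note: 0% = growth of vehicle-only cultures of the same strain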
- Particulars: S. cerevisiae rad50 strain growth inhibition; at 5.0 µM (retest, dose inferred, filed as 0.5); active compounds read high
About 79,000 compounds went through this panel and 15% of them were active in at least one assay; those are over-represented in the sample as a whole.
Please provide measured growth inhibition for the entries that follow.
Numbers only, in %.

>>> reported_result("c1ccc(CSC(SCc2ccccc2)(c2ccccc2)c2ccccc2)cc1")
30
>>> reported_result("Nc1ccc([N+](=O)[O-])c(S(=O)(=O)O)c1")
-160
>>> reported_result("c1ccc2c(c1)CNc1ccccc1-2")
4
>>> reported_result("CC(C)(c1ccc(O)cc1)c1ccc(O)cc1")
5
>>> reported_result("O=C(O)c1ccc(Nc2cnc3ccc(C(F)(F)F)cc3n2)cc1")
18

Now, please, on to the next compound.
IN: If you can, please state the reported growth inhibition value of C=C1CC2(CC(c3ccccc3OC)OC(c3ccccc3OC)C2)OC1=O (stereo unspecified) .
OUT: 34

###

- Experimental protocol: NCI Yeast Anticancer Drug Screen. Data for the rad50 strain (AID 155);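 note: 0% = growth of vehicle-only cultures of the same strain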
- Particulars: S. cerevisiae rad50 strain growth inhibition; at 50.0 µM (retest, dose inferred, filed as 5.0)
This is part of a sample that, as a whole, favours compounds with a hit. Of some 79,000 tested, about 15% had one in any assay. Calls of active or inactive are those of the source. Cut-off read from the data, not from the text of the source: active = growth inhibition above about 70%; inactive = the rest.
API: response.call in active, inactive

Below, 6 compounds whose answers are already recorded.
>>> label_class("CC(=O)Nc1ccc(S(=O)(=O)N/N=C/c2ccc(C)cc2)cc1")
"inactive"
>>> label_class("Cc1nc2cc(Cl)ccc2n1-c1ccccc1")
"active"
>>> label_class("O=C1CCC(c2ccccc2)(C2(c3ccccc3)CCC(=O)O2)O1 (stereo not given)")
"inactive"
>>> label_class("COc1cccc(NC(=S)N2CCCCC2)c1")
"inactive"
>>> label_class("O=C1C(CN2CCCCC2)CCCC1CN1CCCCC1 (stereo not given)")
"inactive"
>>> label_class("c1ccc(C2=NC(c3ccccc3)=NS(S3=NC(c4ccccc4)=NC(c4ccccc4)=N3)=N2)cc1 (stereo not given)")
"active"

IN: Record lookup: outcome of this test for "CCN(CC)C(=S)Sc1nc2ccccc2s1" ?
OUT: active

IN: Record lookup: outcome of this test for "O=C1c2cccc(O)c2C(=O)c2c(O)cccc21" ?
OUT: active

IN: Record lookup: outcome of this test for "O=C1OC(c2ccc(O)cc2)(c2ccc(O)cc2)c2cccc3cccc1c23" ?
OUT: active

IN: Record lookup: outcome of this test for CCC(C)c1ccc(O)c(C(C)CC)c1 (stereo not given) ?
OUT: active

###

Please provide measured growth inhibition for the entries that follow.
- Experimental protocol: NCI Yeast Anticancer Drug Screen. Data for the rad50 strain (AID 155);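 note: 0% = growth of vehicle-only cultures of the same strain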
- Particulars: S. cerevisiae rad50 strain growth inhibition; at 50.0 µM; active compounds read high
- Procedure: Growth inhibition of yeast strains with defined genetic alterations is measured as a screen for potential anti-cancer activity. Selected strains with alterations in DNA damage repair or cell cycle control were exposed to compounds and growth inhibition was measured relative to vehicle treated controls. The strain used in this assay is rad50
Compounds without any hit were thinned out: in the full panel of roughly 79,000, 15% have a hit.
Numbers only, in %.

The cases that follow already have their growth inhibition on record.
>>> reported_result("Clc1nc2nc(Cl)c(Cl)n2nc1Cl")
98.5
>>> reported_result("Cc1cc2c(C(C)C)c(O)c(O)c(C=Nc3ccccc3S)c2c(O)c1-c1c(C)cc2c(C(C)C)c(O)c(O)c(C=Nc3ccccc3S)c2c1O")
36.2
>>> reported_result("ClCCCN(CCCCl)c1ccc(C=Nc2cccc(Cl)c2)cc1")
91.3

Take each entry in turn and give its growth inhibition.
1. CCOC(=O)Nc1c(C)cc(C)c(Br)c1C
2. O/N=C(\CC(O)(C(F)(F)F)C(F)(F)F)c1cccc(Cl)c1

OUT:
1. 97.2
2. 91
